test: Tryptophan fluorescent binding assay, POPC vesicles; conditions: 50 μM peptide, PBS pH 7.4
This listing pairs compounds with measured Lipid Concentration-induced 50% Peptide Binding (L/P) POPC Vesicle.
Measurement label: Lipid Concentration-induced 50% Peptide Binding (L/P) POPC Vesicle

1) CC(C)C[C@H](NC(=O)CN)C(=O)N[C@@H](CC(C)C)C(=O)N[C@@H](CCC(=O)O)C(=O)N[C@@H](CC(C)C)C(=O)N[C@@H](CC(C)C)C(=O)N[C@@H](CCC(=O)O)C(=O)N[C@@H](CC(C)C)C(=O)N[C@@H](CC(C)C)C(=O)N[C@@H](CC(C)C)C(=O)N[C@@H](CCCCN)C(=O)N[C@@H](C)C(=O)N[C@@H](C)C(=O)NCC(=O)N[C@@H](Cc1c[nH]c2ccccc12)C(N)=O = 0.48
2) CC(C)C[C@H](NC(=O)CN)C(=O)N[C@@H](CC(C)C)C(=O)N[C@@H](CCC(=O)O)C(=O)N[C@@H](CC(C)C)C(=O)N[C@@H](CC(C)C)C(=O)N[C@@H](CCC(=O)O)C(=O)N[C@@H](CC(C)C)C(=O)N[C@@H](CC(C)C)C(=O)N[C@@H](CC(C)C)C(=O)N[C@@H](Cc1c[nH]cn1)C(=O)N[C@@H](C)C(=O)N[C@@H](C)C(=O)NCC(=O)N[C@@H](Cc1c[nH]c2ccccc12)C(N)=O = 0.50
3) CC(C)C[C@H](NC(=O)CN)C(=O)N[C@@H](CC(C)C)C(=O)N[C@@H](CC(=O)O)C(=O)N[C@@H](CC(C)C)C(=O)N[C@@H](CC(C)C)C(=O)N[C@@H](CCC(=O)O)C(=O)N[C@@H](CC(C)C)C(=O)N[C@@H](CC(C)C)C(=O)N[C@@H](CC(C)C)C(=O)N[C@@H](CCCCN)C(=O)N[C@@H](C)C(=O)N[C@@H](C)C(=O)NCC(=O)N[C@@H](Cc1c[nH]c2ccccc12)C(N)=O = 1.50

====

test: Tryptophan fluorescent binding assay, POPC vesicles; details: 50 μM peptide, PBS pH 7.4
Measurement label: Lipid Concentration-induced 50% Peptide Binding (L/P) POPC Vesicle

1) GLLHLLHLLLEAAG [HHE] = 1.00 L/P
2) GLLKLLELLLKAAG [KEK] = 0.47 L/P
3) GLLELLKLLLKAAG [EKK] = 1.50 L/P
4) GLLHLLKLLLKAAG [HKK] = 0.18 L/P
5) GLLHLLKLLLHAAG [HKH] = 0.18 L/P
6) GLLELLKLLLHAAG [EKH] = 0.75 L/P

====

tested on: HMLER-shEcad (human breast cancer stem cell); test: MTT cytotoxicity assay, HMLER-shEcad; type: cell-based; details: 72 hr, MTT; read-out: IC50 HMLER-shEcad
pIC50: −log10 of the molar value.
Measurement label: pIC50

1) CC(C)C[C@H](NC(=O)CN)C(=O)N[C@@H](CC(C)C)C(=O)N[C@@H](CCC(=O)O)C(=O)N[C@@H](CC(C)C)C(=O)N[C@@H](CC(C)C)C(=O)N[C@@H](CCC(=O)O)C(=O)N[C@@H](CC(C)C)C(=O)N[C@@H](CC(C)C)C(=O)N[C@@H](CC(C)C)C(=O)N[C@@H](CCC(=O)O)C(=O)N[C@@H](C)C(=O)N[C@@H](C)C(=O)NCC(=O)N[C@@H](Cc1c[nH]c2ccccc12)C(N)=O = 4.98
2) CC(C)C[C@H](NC(=O)CN)C(=O)N[C@@H](CC(C)C)C(=O)N[C@@H](CCC(=O)O)C(=O)N[C@@H](CC(C)C)C(=O)N[C@@H](CC(C)C)C(=O)N[C@@H](Cc1c[nH]cn1)C(=O)N[C@@H](CC(C)C)C(=O)N[C@@H](CC(C)C)C(=O)N[C@@H](CC(C)C)C(=O)N[C@@H](CCC(=O)O)C(=O)N[C@@H](C)C(=O)N[C@@H](C)C(=O)NCC(=O)N[C@@H](Cc1c[nH]c2ccccc12)C(N)=O = 5.59
3) CC(C)C[C@H](NC(=O)CN)C(=O)N[C@@H](CC(C)C)C(=O)N[C@@H](CCC(=O)O)C(=O)N[C@@H](CC(C)C)C(=O)N[C@@H](CC(C)C)C(=O)N[C@@H](CCC(=O)O)C(=O)N[C@@H](CC(C)C)C(=O)N[C@@H](CC(C)C)C(=O)N[C@@H](CC(C)C)C(=O)N[C@@H](Cc1c[nH]cn1)C(=O)N[C@@H](C)C(=O)N[C@@H](C)C(=O)NCC(=O)N[C@@H](Cc1c[nH]c2ccccc12)C(N)=O = 5.44
4) CC(C)C[C@H](NC(=O)CN)C(=O)N[C@@H](CC(C)C)C(=O)N[C@@H](CC(=O)O)C(=O)N[C@@H](CC(C)C)C(=O)N[C@@H](CC(C)C)C(=O)N[C@@H](CCC(=O)O)C(=O)N[C@@H](CC(C)C)C(=O)N[C@@H](CC(C)C)C(=O)N[C@@H](CC(C)C)C(=O)N[C@@H](CCCCN)C(=O)N[C@@H](C)C(=O)N[C@@H](C)C(=O)NCC(=O)N[C@@H](Cc1c[nH]c2ccccc12)C(N)=O = 6.15
5) CC(C)C[C@H](NC(=O)CN)C(=O)N[C@@H](CC(C)C)C(=O)N[C@@H](CCCCN)C(=O)N[C@@H](CC(C)C)C(=O)N[C@@H](CC(C)C)C(=O)N[C@@H](CCC(=O)O)C(=O)N[C@@H](CC(C)C)C(=O)N[C@@H](CC(C)C)C(=O)N[C@@H](CC(C)C)C(=O)N[C@@H](CCC(=O)O)C(=O)N[C@@H](C)C(=O)N[C@@H](C)C(=O)NCC(=O)N[C@@H](Cc1c[nH]c2ccccc12)C(N)=O = 5.69

====

test system: HMLER (human breast cancer bulk cell); assay: MTT cytotoxicity assay, HMLER; type: cell-based; conditions: 72 hr, MTT; read-out: IC50 HMLER
pIC50: −log10 of the molar value. [ ]: non-standard residue; d: D form.
Each item that follows carries a reported pIC50.
Measurement label: pIC50

1. GLLDLLKLLLHAAG [DKH] = 5.46
2. D-form peptide of the selected sequence EEK (GLLELLELLLKAAGW) (H-G[dL][dL][dE][dL][dL][dE][dL][dL][dL][dK][dA][dA]G[dW]-NH2) [D-form EEK] = 6.54
3. GLLDLLKLLLEAAG [DKE] = 5.68
4. GLLKLLHLLLEAAG [KHE] = 5.43
5. GLLKLLHLLLKAAG [KHK] = 5.59
6. GLLKLLKLLLEAAG [KKE] = 5.69
7. GLLHLLELLLHAAG [HEH] = 4.54
8. GLLHLLHLLLEAAG [HHE] = 4.78
9. GLLDLLKLLLKAAG [DKK] = 5.71
10. GLLDLLHLLLKAAG [DHK] = 5.76
11. GLLDLLELLLEAAG [DEE] = 5.26
12. GLLKLLHLLLHAAG [KHH] = 5.28
13. GLLKLLKLLLKAAG [KKK] = 5.80
14. GLLDLLHLLLEAAG [DHE] = 5.43
15. GLLKLLKLLLHAAG [KKH] = 5.62
16. GLLHLLELLLKAAG [HEK] = 5.63
17. GLLHLLHLLLKAAG [HHK] = 5.50
18. GLLELLKLLLHAAG [EKH] = 5.56
19. GLLHLLKLLLKAAG [HKK] = 5.47
20. GLLKLLELLLHAAG [KEH] = 5.48
21. GLLDLLHLLLHAAG [DHH] = 4.67
22. GLLHLLKLLLEAAG [HKE] = 5.57
23. GLLELLKLLLKAAG [EKK] = 5.76
24. GLLHLLKLLLHAAG [HKH] = 5.46
25. GLLDLLELLLHAAG [DEH] = 5.27
26. GLLELLKLLLEAAG [EKE] = 5.74
27. GLLKLLELLLKAAG [KEK] = 5.80
28. GLLELLHLLLKAAG [EHK] = 5.87
29. GLLELLHLLLHAAG [EHH] = 4.60
30. GLLHLLHLLLHAAG [HHH] = 4.68
31. GLDDLAKLLLKLAG [25B2, reference compound] = 5.08
32. GLLHLLELLLEAAG [HEE] = 5.19

====

assay: ANTS/DPX liposome leakage assay, 3POPC/1POPG vesicles; format: biochemical; conditions: 0.5 mM vesicles, pH 7.4
Measurement label: Peptide Concentration-induced 50% ANTS/DPX leakage at pH 7.4 (L/P) 3POPC/1POPG Vesicle

1. GLLELLHLLLHAAG [EHH] = 981
2. GLLELLKLLLEAAG [EKE] = 657
3. GLLHLLELLLHAAG [HEH] = 505
4. GLLKLLKLLLHAAG [KKH] = 227
